Recorded pIC50 for the following molecules
molecular target: human S1P1 receptors (Homo sapiens, UniProt P21453); experiment: S1P1R antagonist assay (fluorescent membrane potential dye, cAMP readout); conditions: HEK293 cells expressing human S1P1 receptors and CNG channel; 500 nM NECA; S1P1R agonist 10 nM; 90 minutes; read-out: EC50 or IC50 value
Sequence (P21453 whole entry): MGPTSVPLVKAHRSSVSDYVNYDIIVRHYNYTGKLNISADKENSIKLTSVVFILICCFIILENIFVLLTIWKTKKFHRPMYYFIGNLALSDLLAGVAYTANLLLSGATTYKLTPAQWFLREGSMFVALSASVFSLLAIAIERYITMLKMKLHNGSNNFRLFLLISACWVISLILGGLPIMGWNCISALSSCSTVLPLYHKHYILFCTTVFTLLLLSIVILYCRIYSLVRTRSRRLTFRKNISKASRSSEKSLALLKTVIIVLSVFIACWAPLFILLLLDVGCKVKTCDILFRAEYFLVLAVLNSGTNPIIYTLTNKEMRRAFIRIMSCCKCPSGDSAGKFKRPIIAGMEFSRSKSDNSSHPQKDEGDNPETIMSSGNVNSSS
pIC50: −log10 of the molar value.
quantity: pIC50

INSERT INTO assay_data (molecule, target, quantity, assay_result) VALUES
  ('CCCCC(C)C(=O)NC(COCc1ccccc1)C(=O)Nc1ccc(Oc2ccccc2)cc1 (stereo not shown)', 'human S1P1 receptors (Homo sapiens, UniProt P21453)', 'pIC50', '6.00 to 6.52'),
  ('O=C(CCCC(=O)c1cccs1)NC(COCc1ccccc1)C(=O)Nc1ccc(Oc2ccccc2)cc1 (stereo not shown)', 'human S1P1 receptors (Homo sapiens, UniProt P21453)', 'pIC50', '6.00 to 6.52'),
  ('O=C(Cn1cncn1)N[C@@H](COCc1ccccc1)C(=O)Nc1ccc(Oc2ccc(F)cc2)cc1', 'human S1P1 receptors (Homo sapiens, UniProt P21453)', 'pIC50', '≥ 6.52'),
  ('CSc1ncccc1C(=O)NC(COCc1ccccc1)C(=O)Nc1ccc(Oc2ccccc2)cc1 (stereo not shown)', 'human S1P1 receptors (Homo sapiens, UniProt P21453)', 'pIC50', '< 6.00'),
  ('CCCC(=O)NC(COCc1ccccc1)C(=O)Nc1ccc(Oc2ccccc2)cc1 (stereo not shown)', 'human S1P1 receptors (Homo sapiens, UniProt P21453)', 'pIC50', '< 6.00'),
  ('O=C(Cc1cnccn1)N[C@@H](COCc1ccccc1)C(=O)Nc1ccc(Oc2ccc(F)cc2)cc1', 'human S1P1 receptors (Homo sapiens, UniProt P21453)', 'pIC50', '≥ 6.52'),
  ('Cc1cccc(C(=O)NC(COCc2ccccc2)C(=O)Nc2ccc(Oc3ccccc3)cc2)c1[N+](=O)[O-] (stereo not shown)', 'human S1P1 receptors (Homo sapiens, UniProt P21453)', 'pIC50', '6.00 to 6.52'),
  ('Cc1ccc(Oc2ccc(NC(=O)[C@H](COCc3ccccc3)NC(=O)Cc3c[nH]cn3)cc2)cc1', 'human S1P1 receptors (Homo sapiens, UniProt P21453)', 'pIC50', '≥ 6.52'),
  ('COc1ccc(CCCC(=O)NC(COCc2ccccc2)C(=O)Nc2ccc(Oc3ccccc3)cc2)cc1OC (stereo not shown)', 'human S1P1 receptors (Homo sapiens, UniProt P21453)', 'pIC50', '< 6.00'),
  ('O=C(Nc1ccc(Oc2ccc(F)cc2)cc1)[C@@H]1C[C@@H](NCc2ccsc2)CN1C(=O)Cn1cncn1', 'human S1P1 receptors (Homo sapiens, UniProt P21453)', 'pIC50', '≥ 6.52'),
  ('O=C(NC(COCc1ccccc1)C(=O)Nc1ccc(Oc2ccccc2)cc1)C(=O)c1ccco1 (stereo not shown)', 'human S1P1 receptors (Homo sapiens, UniProt P21453)', 'pIC50', '< 6.00'),
  ('O=C(Cc1cccnc1)N[C@@H](COCc1ccccc1)C(=O)Nc1ccc(Oc2ccc(F)cc2)cc1', 'human S1P1 receptors (Homo sapiens, UniProt P21453)', 'pIC50', '≥ 6.52'),
  ('CC/C=C/CC(=O)NC(COCc1ccccc1)C(=O)Nc1ccc(Oc2ccccc2)cc1 (stereo not shown)', 'human S1P1 receptors (Homo sapiens, UniProt P21453)', 'pIC50', '6.00 to 6.52');

* * *

Recorded IC50 for the following compounds
molecular target: human S1P1 receptors (Homo sapiens, UniProt P21453); assay: S1P1R antagonist assay (fluorescent membrane potential dye, cAMP readout); conditions: HEK293 cells expressing human S1P1 receptors and CNG channel; 500 nM NECA; S1P1R agonist 10 nM; 90 minutes; read-out: EC50 or IC50 value
quantity: IC50

INSERT INTO results (compound, quantity, assay_result) VALUES
  ('CN(C)c1ccc(C(=O)NC(COCc2ccccc2)C(=O)Nc2ccc(Oc3ccccc3)cc2)cc1 (stereo not shown) [Compound 294]', 'IC50', '> 1000 nM'),
  ('O=C(Cn1cncn1)N[C@@H](COCc1ccc(F)cc1)C(=O)Nc1ccc(Oc2ccc(F)cc2)cc1 [Compound 135]', 'IC50', '≤ 300 nM'),
  ('O=C(CN1Cc2ccccc2C1)N[C@@H](COCc1ccccc1)C(=O)Nc1ccc(Oc2ccc(F)cc2)cc1 [Compound 240]', 'IC50', '300 to 1000 nM'),
  ('O=C(Cc1cc(Cl)ccc1Cl)NC(COCc1ccccc1)C(=O)Nc1ccc(Oc2ccccc2)cc1 (stereo not shown) [Compound 190]', 'IC50', '300 to 1000 nM'),
  ('O=C(Nc1ccc(Oc2ccc(F)cc2)cc1)[C@@H]1C[C@@H](Cc2ccccc2Cl)CN1C(=O)Cn1cncn1 [Compound 57]', 'IC50', '≤ 300 nM'),
  ('O=C(CNCCc1c[nH]cn1)N[C@@H](COCc1ccccc1)C(=O)Nc1ccc(Oc2ccc(F)cc2)cc1 [Compound 216]', 'IC50', '300 to 1000 nM'),
  ('O=C(Nc1ccc(Oc2ccc(F)cc2)cc1)[C@@H]1C[C@@H](NCc2ccccc2)CN1C(=O)Cc1cnc[nH]1 [Compound 173]', 'IC50', '≤ 300 nM');

* * *

biological target: human S1P1 receptors (Homo sapiens, UniProt P21453); experiment: S1P1R antagonist assay (fluorescent membrane potential dye, cAMP readout); conditions: HEK293 cells expressing human S1P1 receptors and CNG channel; 500 nM NECA; S1P1R agonist 10 nM; 90 minutes; read-out: EC50 or IC50 value
Recorded IC50 for the following compounds
quantity: IC50

INSERT INTO results (compound, assay_result) VALUES
  ('O=C(NC(COCc1ccccc1)C(=O)Nc1ccc(Oc2ccccc2)cc1)c1cn[nH]c1 (centres unmarked)', '300 to 1000 nM'),
  ('O=C(Nc1ccc(Oc2ccc(F)cc2)cc1)[C@@H]1C[C@@H](Cc2ccccc2)CN1C(=O)Cn1ccnn1', '≤ 300 nM'),
  ('CC1CCCN1CC(=O)N[C@@H](COCc1ccccc1)C(=O)Nc1ccc(Oc2ccc(F)cc2)cc1 (some centres unmarked)', '> 1000 nM'),
  ('CC(=O)c1ccc(N2CCN(CC(=O)N[C@@H](COCc3ccccc3)C(=O)Nc3ccc(Oc4ccc(F)cc4)cc3)CC2)cc1', '300 to 1000 nM'),
  ('COc1cccc(N2CCN(CC(=O)N[C@@H](COCc3ccccc3)C(=O)Nc3ccc(Oc4ccc(F)cc4)cc3)CC2)c1', '> 1000 nM');

* * *

target: human S1P1 receptors (Homo sapiens, UniProt P21453); construct: host or cells: HEK293; experiment: S1P1R antagonist assay (fluorescent membrane potential dye, cAMP readout); assay type: cell-based; conditions: HEK293 cells expressing human S1P1 receptors and CNG channel; 500 nM NECA; S1P1R agonist 10 nM; 90 minutes; read-out: EC50 or IC50 value
pIC50: −log10 of the molar value.
Recorded pIC50 for the following compounds
quantity: pIC50

INSERT INTO assay_data (compound, quantity, assay_result) VALUES
  ('O=C(Nc1ccc(Oc2ccc(F)cc2)cc1)[C@@H]1C[C@@H](Cc2ccccc2)CN1C(=O)C1CCOC1 (some centres unmarked) [Compound 36]', 'pIC50', '≥ 6.52'),
  ('O=C(Nc1ccc(Oc2ccc(F)cc2)cc1)[C@@H]1C[C@@H](Cc2ccccc2C(F)(F)F)CN1C(=O)Cn1cncn1 [Compound 54]', 'pIC50', '≥ 6.52'),
  ('CC(=O)N1CCC[C@H]1C(=O)N1C[C@H](Cc2ccccc2)C[C@H]1C(=O)Nc1ccc(Oc2ccc(F)cc2)cc1 [Compound 93]', 'pIC50', '≥ 6.52'),
  ('COc1cccc(C[C@@H]2C[C@@H](C(=O)Nc3ccc(Oc4ccc(F)cc4)cc3)N(C(=O)Cn3cncn3)C2)c1 [Compound 70]', 'pIC50', '≥ 6.52'),
  ('CC(C)N1CCN(CC(=O)N[C@@H](COCc2ccccc2)C(=O)Nc2ccc(Oc3ccc(F)cc3)cc2)CC1 [Compound 111]', 'pIC50', '< 6.00'),
  ('O=C(NC(COCc1ccccc1)C(=O)Nc1ccc(Oc2ccccc2)cc1)c1cc2ccccc2[nH]1 (centres unmarked) [Compound 386]', 'pIC50', '< 6.00'),
  ('COc1ccccc1N1CCN(CC(=O)N[C@@H](COCc2ccccc2)C(=O)Nc2ccc(Oc3ccc(F)cc3)cc2)CC1 [Compound 217]', 'pIC50', '6.00 to 6.52'),
  ('O=C(Nc1ccc(Oc2ccc(F)cc2)cc1)[C@@H]1C[C@@H](Cc2cccc(Cl)c2)CN1C(=O)Cn1cncn1 [Compound 61]', 'pIC50', '≥ 6.52'),
  ('COc1ccc(C2(C(=O)NC(COCc3ccccc3)C(=O)Nc3ccc(Oc4ccccc4)cc3)CC2)cc1 (centres unmarked) [Compound 360]', 'pIC50', '< 6.00'),
  ('Cc1ccc(CC(=O)NC(COCc2ccccc2)C(=O)Nc2ccc(Oc3ccccc3)cc2)cc1 (centres unmarked) [Compound 372]', 'pIC50', '< 6.00'),
  ('COCCOCCOCC(=O)NC(COCc1ccccc1)C(=O)Nc1ccc(Oc2ccccc2)cc1 (centres unmarked) [Compound 315]', 'pIC50', '< 6.00');
